Source: patent US7880007B2

- system_name: M1 muscarinic receptor (Homo sapiens)
- Construct: expressed in transfected cells; host or cells: CHO (M1-CHO)
- Sequence (P11229 1-460): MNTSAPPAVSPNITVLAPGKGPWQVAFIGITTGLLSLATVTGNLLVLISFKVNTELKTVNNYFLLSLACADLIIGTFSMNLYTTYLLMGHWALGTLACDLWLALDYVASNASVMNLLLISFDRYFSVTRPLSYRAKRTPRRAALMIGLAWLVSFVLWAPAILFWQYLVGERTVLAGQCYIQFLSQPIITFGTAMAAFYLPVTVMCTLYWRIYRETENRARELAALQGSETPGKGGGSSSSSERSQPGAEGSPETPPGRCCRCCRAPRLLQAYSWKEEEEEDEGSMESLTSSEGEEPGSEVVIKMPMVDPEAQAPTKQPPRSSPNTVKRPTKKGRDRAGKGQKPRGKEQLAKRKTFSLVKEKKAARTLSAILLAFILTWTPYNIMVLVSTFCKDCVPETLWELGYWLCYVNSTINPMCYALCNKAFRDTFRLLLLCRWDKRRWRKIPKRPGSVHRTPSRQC
- assay_overview: Functional mobilization of intracellular calcium (FLIPR), M1-CHO cells
- Assay type: cell-based
- applied_conditions: 100% efficacy = maximum response obtained with the Carbachol control
I'd appreciate it if you could supply Emax values for the items below.

// worked examples, Emax included
[
  {
    "molecule": "CCOC(=O)N1CCC(N2CCC(c3ccccc3OC)CC2)CC1",
    "Emax": "25 to 100%"
  },
  {
    "molecule": "COc1ccc(Cl)cc1C1CCN(CC2CCCCC2)CC1",
    "Emax": "< 25%"
  },
  {
    "molecule": "COc1ccc(Cl)cc1C1(F)CCN(C2C3CCCC2CCC3)CC1 (stereo not drawn)",
    "Emax": "< 25%"
  },
  {
    "molecule": "CCCC1CCC(N2CCC(C#N)(c3ccccc3OC)CC2)CC1 (stereo not drawn)",
    "Emax": "25 to 100%"
  },
  {
    "molecule": "COc1ccc(F)cc1C1(F)CCN(C[C@@H]2C[C@H]3C=C[C@H]2C3)CC1",
    "Emax": "25 to 100%"
  },
  {
    "molecule": "COc1ccc(Cl)cc1C1(OC)CCN(C2CC3CCC(C3)C2)CC1 (stereo not drawn)",
    "Emax": "25 to 100%"
  },
  {
    "molecule": "COc1ccccc1C1CCN(C2CCOCC2)CC1O (stereo not drawn)",
    "Emax": "25 to 100%"
  },
  {
    "molecule": "COc1ccc(Cl)cc1C1(F)CCN([C@H]2C[C@H]3CC[C@H]2C3)CC1",
    "Emax": "< 25%"
  }
]

Now look at this one.
q: Short answer please: Emax, M1 muscarinic receptor (Homo sapiens), entry CCOC(=O)N1[C@@H]2CC[C@@H]1CC(N1CCC(c3cc(F)ccc3C)CC1)C2 (stereo partly drawn)
a: 25 to 100%
